The values you see were collected from paper PMC10913065.

Experiment: Kinetic solubility assay (adapted shake flask method, McIlvaine buffer)
Assay type: physicochemical
Settings: pH 6.8, aqueous buffer, kinetic from dmso stock, at neutral pH
parameter_measured: solubility kinetic at 18 h (µM)

Consider the worked cases shown below.
Cc1ccccc1O[C@H]1CCCNCC[C@@H]1NC(=O)c1ccccc1: 92.2
Cc1ccccc1O[C@H]1CCNC[C@@H]1NC(=O)c1ccccc1: 79.1

a = Cc1ccccc1O[C@H]1CNC[C@@H]1NC(=O)c1ccccc1
b = Cc1ccccc1Oc1ccccc1NC(=O)c1ccccc1 [d, reference compound]
Exercise: Between a and b , which one shows the larger solubility kinetic at 18 h value? Your answer should be the label attached to the chosen record.
Key: a
(a: 90.7 µM, b: 5.74 µM)
